This listing pairs molecules with measured thermal shift (delta Tm).
Target: Luciferin 4-monooxygenase (Photinus pyralis)
Test: Thermal Shift Assay for Inhibitors of FLuc (Firefly Luciferase, Photinus pyralis) in Presence of ATP
Conditions: Purified FLuc with ATP, SYPRO Orange thermal shift; at 200 µM; hits give high values
From the text: Firefly (Photinus pyralis) luciferase (FLuc) is widely used as a reporter in biological assays. […] In order to determine if FLuc thermal stabilization parallels inhibitor potency, a fluorescence-based thermal denaturation assay was developed in this present study. An environmentally sensitive fluorescence dye, SYPRO Orange (Invitrogen, presently Life Technologies) was utilized to monitor the fluorescence change as a function of temperature. […]
Activity calls are given as the source filed them.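 Rule for the calls: active = any rise in protein melting temperature, meaning a thermal shift above zero; inactive = the rest.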
Endpoint: thermal shift (delta Tm)

• O=C(O)c1ccccc1-c1noc(-c2ccccc2F)n1 = 5.48 C (active)
• O=C(O)c1ccc(-c2noc(-c3ccccc3F)n2)cc1 = 11.6 C (active)
• O=C(O)c1cccc(-c2noc(-c3cccc(Cl)c3)n2)c1 = 11.8 C (active)
• NC(=O)c1cccc(-c2noc(-c3ccccc3F)n2)c1 = 6.12 C (active)
• Nc1ncnc2c1ncn2[C@@H]1O[C@H](COP(=O)(O)OC(=O)c2cccc(-c3noc(-c4ccccc4F)n3)c2)[C@@H](O)[C@H]1O = 12.6 C (active)
• NC(=O)c1ccccc1-c1noc(-c2ccccc2F)n1 = 3.72 C (active)
• Fc1ccccc1-c1nc(-c2cccc(-c3nn[nH]n3)c2)no1 = 6.04 C (active)
